# Tested on: OVCAR-8 ovarian
# protocol.summary: NCI tumour cell line growth inhibition, 48 h
Where a SMILES comes first, the peptide text is derived from it. [ ]: non-standard residue; d: D form. The star is where a group is joined. ξ: configuration not given here. ξD = NC(CC(=O)O)C(=O)O; Boc = CC(C)(C)OC(=O)*; Aib = CC(C)(N)C(=O)O; OtBu = CC(C)(C)O*
Each entry below carries its reported TGI.
outcome.measure: TGI

COC(=O)/C(=N\NC(N)=O)C(C(=O)C(=O)Nc1ccccc1C(=O)OC)c1nc2ccc(C(=O)c3ccccc3)cc2[nH]c1=O (stereo not given) | > 100 µM
COC(=O)C(C)(C)NC(=O)C(C)(C)NC(=O)C(CC(=O)OC(C)(C)C)NC(=O)OC(C)(C)C (stereo not given) (Boc-[ξD](OtBu)-[Aib]-[Aib]-OMe) | > 100 µM
COc1ccc(/C=C/c2cc(OC)c(OC)c(OC)c2)cc1O[Si](C)(C)C(C)(C)C | 10.8 µM
Oc1ccc(C=NCC2CCCN3CCCCC23)cc1 (stereo not given) | > 100 µM
COc1ccc(NC(=S)Nc2ccccc2)cc1 | > 100 µM

* * *

We begin with a simple list: items and their reported TGI.
# Tested on: RPMI-8226 leukemia
# protocol.summary: NCI tumour cell line growth inhibition, 48 h
outcome.measure: TGI (µM)

CC(C)(C)C(=O)OCCNc1nc(-c2ccccc2)nc2ccccc12 | 25.7
COc1ccc(OC)c(/C=C/C(=O)N/N=C/c2ccccc2)c1 | 9.96
CCCC(=O)OC[n+]1ccc2c(C)c3[nH]c4ccc(OC)cc4c3c(C)c2c1 | 0.54
CC[C@H](C)[C@H]1NC(=O)[C@@H](NC(=O)[C@@H](CC(C)C)N(C)C(=O)C2CCCN2C(=O)[C@H](C)O)[C@@H](C)OC(=O)[C@@H]2Cc3ccccc3CN2C(=O)[C@@H]2CCCN2C(=O)[C@H](CC(C)C)NC(=O)[C@@H](C)C(=O)[C@H](C(C)C)OC(=O)C[C@@H]1O (stereo partly drawn) | 10.4
Cc1ccc(NCCN(C)C)c2c(=O)c3cc(O)ccc3oc12 | 34.3

* * *

# Test system: SNB-78 CNS
# protocol.summary: NCI tumour cell line growth inhibition, 48 h
Quick list: TGI per entry.
outcome.measure: TGI

CCCNC1=C(C)C(=O)C2=C(C1=O)[C@H](COC(N)=O)[C@]1(OC)[C@@H]3N[C@@H]3CN21 | 158 µM
O=C(OCCO)C1CC2CC1C1(C2)OCCO1 (stereo unspecified) | > 100 µM
CN(C)CCCN1N=Nc2cccc3cccc1c23 | > 100 µM
O=S(=O)(SCCCCSS(=O)(=O)c1ccc(Cl)cc1)c1ccc(Cl)cc1 | 56.4 µM
c1ccc(C2N=NN(c3ccccc3)C2N2CCCCC2)cc1 (stereo unspecified) | > 100 µM
COC1CC(Br)(C#N)C1 (stereo unspecified) | > 100 µM
CCC1=C(CC)C1(C#N)[N+](=O)[O-] | > 100 µM
Cc1c(-c2c(C)c(=O)c3c(C(C)C)c(=O)c(=O)c(C=O)c-3c2=O)c(O)c2c(C=O)c(O)c(O)c(C(C)C)c2c1O | 6.78 µM
Nc1ccc(C(=O)N/C(=C\C=C\c2ccco2)c2nc3c4c(ccc3[nH]2)C(=O)c2ccccc2C4=O)cc1 | > 100 µM
COc1ccccc1/C=C1\C(=O)N(C(=O)c2ccc(NC(C)=O)cc2)N=C1C | > 100 µM
N#CC1C(=O)C(=O)N(c2ccccc2)C1=O (stereo unspecified) | > 100 µM
